Test system: L1210 murine leukemia
Assay: in vitro cytotoxicity to L1210 murine leukemia
Assay type: cell-based
Conditions: potency relative to Et 743
Text: In view of the exceptional antitumor properties of the natural ecteinascidins, the present invention has studied the antitumor activities of the semi-synthetic analogs prepared herein.
ENDPOINT_LABEL: IC50 (Et 743)/IC50
I only need the number, thanks.

Consider the worked cases shown below.
>>> reported_value("COc1cc2c(cc1O)CCN[C@]21CSC2c3c(OC(C)=O)c(C)c4c(c3C(COC1=O)N1C2C2NC(Cc3cc(C)c(OC)c(O)c32)[C@@H]1O)OCO4 (stereo partly drawn)")
10
>>> reported_value("COC(=O)C(C(=O)OC)[C@H]1C2Cc3cc(C)c(OC)c(O)c3C(C3C4SC[C@]5(NCCc6cc(O)c(OC)cc65)C(=O)OCC(c5c6c(c(C)c(OC(C)=O)c54)OCO6)N31)N2C (stereo partly drawn)")
1

Which IC50 (Et 743)/IC50 is reported for this compound? COc1cc2c(cc1O)CCN(C)[C@]21CSC2c3c(OC(C)=O)c(C)c4c(c3C(COC1=O)N1C2C2c3c(cc(C)c(OC)c3O)CC([C@@H]1O)N2C)OCO4 (stereo partly drawn) 50
